Molecular target: Kir3.1/3.4 (Rattus norvegicus, UniProt P48548+P63251)
Construct: expressed in transfected cells
Sequence (P63251 1-501): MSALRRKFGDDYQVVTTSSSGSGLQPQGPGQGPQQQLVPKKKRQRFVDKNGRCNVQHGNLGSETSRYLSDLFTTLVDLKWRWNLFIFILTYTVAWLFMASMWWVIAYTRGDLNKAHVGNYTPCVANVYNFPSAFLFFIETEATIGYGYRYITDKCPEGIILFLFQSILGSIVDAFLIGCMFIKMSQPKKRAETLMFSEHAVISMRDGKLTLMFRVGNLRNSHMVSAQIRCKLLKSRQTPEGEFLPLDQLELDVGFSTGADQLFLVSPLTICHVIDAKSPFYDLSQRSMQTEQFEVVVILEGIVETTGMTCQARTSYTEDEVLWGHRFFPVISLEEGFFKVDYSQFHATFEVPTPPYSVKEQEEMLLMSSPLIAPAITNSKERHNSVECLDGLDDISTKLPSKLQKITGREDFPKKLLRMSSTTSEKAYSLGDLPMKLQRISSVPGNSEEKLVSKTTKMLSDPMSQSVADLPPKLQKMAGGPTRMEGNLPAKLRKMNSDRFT
Sequence (P48548 1-419): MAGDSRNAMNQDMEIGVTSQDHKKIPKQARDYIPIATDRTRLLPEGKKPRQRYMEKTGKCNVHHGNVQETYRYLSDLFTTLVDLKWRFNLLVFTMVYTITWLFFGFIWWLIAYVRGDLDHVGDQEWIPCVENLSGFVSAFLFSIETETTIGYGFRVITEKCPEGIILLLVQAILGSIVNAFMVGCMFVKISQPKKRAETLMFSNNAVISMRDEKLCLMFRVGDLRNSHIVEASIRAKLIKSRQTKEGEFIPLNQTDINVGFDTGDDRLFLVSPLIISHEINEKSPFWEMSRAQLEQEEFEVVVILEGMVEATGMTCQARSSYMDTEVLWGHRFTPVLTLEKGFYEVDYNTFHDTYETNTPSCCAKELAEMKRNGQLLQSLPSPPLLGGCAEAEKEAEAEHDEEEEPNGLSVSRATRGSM
Assay: Kir3.1/3.4 Electrophysiology Method (manual whole-cell patch clamp)
Format: cell-based
Settings: Electrophysiology Method (TABLE 1)
OBSERVED_PROPERTY: IC50

>  <COMPOUND>
CCc1c(C)sc2ncnc(N3CCC(COCCN4CCOCC4)CC3)c12

>  <IC50>
< 500 nM

$$$$
>  <COMPOUND>
CC(C)N(CCNCC1CCN(c2ncnc3scc(-c4ccccc4)c23)CC1)C(C)C

>  <IC50>
< 500 nM

$$$$
>  <COMPOUND>
OCC1CC2CCC(C1)N2c1nc(N2CCOCC2)c2c(-c3ccccc3)csc2n1 (centres unmarked)

>  <IC50>
500 to 3000 nM

$$$$
>  <COMPOUND>
CN1CCN(c2nc(N3CCC(CNCCC4CCCN4C)CC3)c3c(-c4ccccc4)csc3n2)CC1 (centres unmarked)

>  <IC50>
500 to 3000 nM

$$$$
>  <COMPOUND>
CN1CCC(NC2CCN(c3ncnc4scc(-c5ccccc5)c34)CC2)CC1

>  <IC50>
< 500 nM

$$$$

The measured IC50 that COC1CCN(CC2CCN(c3ncnc4scc(-c5ccccc5)c34)CC2)C1 (centres unmarked) showed for Kir3.1/3.4 (Rattus norvegicus, UniProt P48548+P63251) is < 500 nM

The measured IC50 that c1ccc(COC2CCN(c3ncnc4scc(-c5ccccc5)c34)C2)cc1 (centres unmarked) [Example 178, d]pyrimidine] showed for Kir3.1/3.4 (Rattus norvegicus, UniProt P48548+P63251) is 500 to 3000 nM

The measured IC50 that COc1ccccc1-c1csc2ncnc(N3C4CCC3CC(NC3CCC3)C4)c12 (centres unmarked) showed for Kir3.1/3.4 (Rattus norvegicus, UniProt P48548+P63251) is < 500 nM

---

Target: Kir3.1/3.4 (Rattus norvegicus, UniProt P48548+P63251)
Construct: expressed in transfected cells
Assay: Kir3.1/3.4 Electrophysiology Method (manual whole-cell patch clamp)
Format: cell-based
Details: Electrophysiology Method (TABLE 1)
pIC50: −log10 of the molar value.
OBSERVED_PROPERTY: pIC50

>  <COMPOUND>
FC(F)(F)Oc1ccccc1-c1csc2ncnc(N3C4CCC3CC(NC3CCC3)C4)c12 (stereo not shown)

>  <pIC50>
> 6.30

$$$$
>  <COMPOUND>
CN(C)c1nc(N2CCC(COCCN3CCCC3)CC2)nc2scc(-c3ccccc3)c12

>  <pIC50>
> 6.30

$$$$
>  <COMPOUND>
NC(=O)[C@@H]1CCCN1CC1CCN(c2ncnc3scc(-c4ccccc4)c23)CC1

>  <pIC50>
> 6.30

$$$$
>  <COMPOUND>
OC1CCN(CC2CCN(c3ncnc4scc(C5CCCCC5)c34)CC2)C1 (stereo not shown)

>  <pIC50>
> 6.30

$$$$
>  <COMPOUND>
CN(C)CCCN(C)CC1CCN(c2ncnc3scc(-c4ccccc4)c23)CC1

>  <pIC50>
> 6.30

$$$$
>  <COMPOUND>
c1ccc(-c2csc3ncnc(N4CCCC(CNC5CCC5)C4)c23)cc1 (stereo not shown)

>  <pIC50>
5.52 to 6.30

$$$$

So for `CCCNCC1CCN(c2ncnc3scc(-c4ccccc4)c23)CC1` , the logged pIC50 turned out to be 5.52 to 6.30

So for CC(C)c1cc2c(N3CCC(COCCC4CCCCN4C)CC3)ncnc2s1 (stereo not shown) , the logged pIC50 turned out to be > 6.30

So for CC(C)c1csc2ncnc(N3CC4CC3CC4OCCN3CC[C@@H](F)C3)c12 (stereo partly shown) , the logged pIC50 turned out to be > 6.30

So for `COCC1CCN(c2nc(N(CCO)CCN3CCCC3)nc3scc(-c4ccccc4)c23)CC1` , the logged pIC50 turned out to be > 6.30

So for `Fc1ccc(-c2csc3ncnc(N4CCC(CNC5CCC5)CC4)c23)cc1` , the logged pIC50 turned out to be 5.52 to 6.30

So for CN(C)C(=O)c1ccccc1-c1csc2ncnc(N3C4CCC3CC(COCCN3CCCC3)C4)c12 (stereo not shown) , the logged pIC50 turned out to be > 6.30

So for CC(C)c1csc2ncnc(N3CC4CC3CC4OCCN3CC4CC3CO4)c12 (stereo not shown) , the logged pIC50 turned out to be 5.52 to 6.30

So for COCC1C[C@H]2CC[C@@H](C1)N2c1nc(OC2CC3CC2CN3)nc2sc(C(=O)N(C)C)c(-c3ccccc3)c12 (stereo partly shown) , the logged pIC50 turned out to be 5.52 to 6.30

So for `c1nc(N2CCC(COCCN3CCCC3)CC2)c2c(-c3ccoc3)csc2n1` , the logged pIC50 turned out to be > 6.30

So for CN1CCCC1COCC1CCN(c2ncnc3scc(-c4ccccc4)c23)CC1 (stereo not shown) , the logged pIC50 turned out to be > 6.30

So for CN(CC1CCN(c2ncnc3scc(-c4ccccc4)c23)CC1)C1CCOC1 (stereo not shown) , the logged pIC50 turned out to be 5.52 to 6.30

So for Fc1ccc(-c2csc3ncnc(N4CC5C(COCCN6CC7CC6CO7)C5C4)c23)cc1 (stereo not shown) , the logged pIC50 turned out to be > 6.30

So for CC(NC1CC1)C1CCN(c2ncnc3scc(-c4ccccc4)c23)CC1 (stereo not shown) , the logged pIC50 turned out to be > 6.30

So for `COc1ccccc1-c1csc2ncnc(N3CCC(COCCN4CCCC4)CC3)c12` , the logged pIC50 turned out to be > 6.30

---

Target: Kir3.1/3.4 (Rattus norvegicus, UniProt P48548+P63251)
Construct: expressed in transfected cells
Experiment: Kir3.1/3.4 Electrophysiology Method (manual whole-cell patch clamp)
Type: cell-based
Conditions: Electrophysiology Method (TABLE 1)
pIC50: −log10 of the molar value.
# maps each entry to its pIC50

So for c1ccc(CNc2sc3ncnc(N4CCC(COCCN5CCCC5)CC4)c3c2-c2ccccc2)cc1 [Example 168] , the logged pIC50 turned out to be > 6.30

---

Target: Kir3.1/3.4 (Rattus norvegicus, UniProt P48548+P63251)
Construct: expressed in transfected cells
Experiment: Kir3.1/3.4 Q-patch Method (automated patch clamp, Sophion Q-patch)
Format: cell-based
Conditions: HEK293 cells stably-expressing Kir3.1/3.4; current at -120 mV; QPatch-16 or QPatch-48
OBSERVED_PROPERTY: IC50

>  <COMPOUND>
COc1ccccc1-c1csc2nc(N3C4CCC3COC4)nc(N3CCOC(C(N)=O)C3)c12 (stereo not shown)

>  <ASSAYED_SYSTEM>
Kir3.1/3.4 (Rattus norvegicus, UniProt P48548+P63251)

>  <MEASURED>
< 500 nM

$$$$

So for NC(=O)C1CCN(c2nc(N3C4CCC3COC4)c3c(-c4ccccc4Cl)csc3n2)C1 (stereo not shown) , the logged IC50 turned out to be 500 to 3000 nM

So for OC1CC2CCC(C1)N2c1nc(N2C3CCC2COC3)c2c(-c3ccccc3Cl)csc2n1 (stereo not shown) , the logged IC50 turned out to be < 500 nM

So for COCC1CC2CCC(C1)N2c1nc(N2CCC(C(N)=O)C2)nc2scc(-c3ccccc3OC)c12 (stereo not shown) , the logged IC50 turned out to be 500 to 3000 nM

So for NC(=O)C1CN(c2nc(N3C4CCC3COC4)nc3scc(-c4ccccc4Cl)c23)CCN1 (stereo not shown) , the logged IC50 turned out to be 500 to 3000 nM

So for COCC1CC2CCC(C1)N2c1nc(N2CCNC(=O)C2)nc2scc(-c3ccccc3OC)c12 (stereo not shown) , the logged IC50 turned out to be 500 to 3000 nM

So for NC(=O)C1CN(c2nc(N3C4CCC3COC4)c3c(-c4ccccc4Cl)csc3n2)CCN1 (stereo not shown) , the logged IC50 turned out to be < 500 nM
